Measured values drawn from patent US4087461A for this set.

Exercise: state measured Ki for each of the compounds provided.
- TARGET_SYSTEM: Δ^5 -3-ketosteroid isomerase (EC 5.3.3.1) (Comamonas testosteroni)
- Sequence (P00947 whole entry, stated change not applied): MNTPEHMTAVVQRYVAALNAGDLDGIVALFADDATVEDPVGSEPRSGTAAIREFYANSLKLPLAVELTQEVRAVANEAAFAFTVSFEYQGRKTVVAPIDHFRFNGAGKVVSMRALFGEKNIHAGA
- PROTOCOL_TEXT: irreversible inactivation of crystalline purified bacterial Δ^5-3-ketosteroid isomerase by acetylenic steroids (Kitz and Wilson kinetic analysis)
- CONDITION_SUMMARY: pseudo first order conditions; five inhibitor concentrations (10-fold range); read-out: K1 (KI), inhibitor dissociation constant
- Experimental: The inactivation is progressive with time, and half-lives in the range of 150-1320 sec are observed at concentrations of 20-200 μM of the two inhibitors. The enzymatic activities of control vessels which received only equivalent volumes of 1,4-dioxane remained constant at initial activities. The initial rates of inactivation of the isomerase by (1) and (2) can be analyzed by the method of Kitz and Wilson^8 since very satisfactory pseudo-first-order behavior was observed. It is assumed that [I] […]
State the answer as a number, implicitly in µM.

QUERY: Provide Δ^5 -3-ketosteroid isomerase (EC 5.3.3.1) (Comamonas testosteroni) Ki reading for C[C@]12CC[C@@H]3C(=O)CCC(=O)CC#CC[C@H]3[C@@H]1CCC2=O [Compound 1, 5,10-secoestr-5-yne-3,10,17-trione] .
RESULT: 56

QUERY: With Δ^5 -3-ketosteroid isomerase (EC 5.3.3.1) (Comamonas testosteroni) as the test system, provide measured Ki for this compound: CC(=O)[C@H]1CC[C@H]2[C@@H]3CC#CCC(=O)CCC(=O)[C@H]3CC[C@]12C [Compound 2]
RESULT: 32
